# Test system: SK-MEL-5 melanoma
# PROCEDURE_SUMMARY: NCI-60 one-dose screen, 48 h
# STATED_CONDITIONS: 10 µM unless noted
The panel holds about 83,000 compounds, 20% with a hit somewhere; the sample as a whole holds those more often. Active and inactive are the calls of the source. The calls were made as follows: active = growth percent below 10; inactive = the rest.
Could you please pick one outcome from this set? Yes = active, No = inactive

Here's what some known entries look like.
| MOLECULE | QUALITATIVE_LABEL |
| --- | --- |
| Fc1ccccc1-c1cnn2cc(-c3ccccc3)cnc12 | No |
| CC(=O)N1N=C(c2ccc(F)cc2)CC1c1sc(N(C)Cc2ccccc2)nc1Cl (stereo not drawn) | No |
| Cc1ccc(-c2nc(C#N)c(S(=O)(=O)N(C)C)o2)cc1 | No |
| NC(=O)c1c(NC(=O)/C=C/c2cccs2)sc2c1CCC(=O)C2 | No |
| Cc1ccc(Nc2nc(-c3cc(O)c(C)c(C)c3O)cs2)cc1 | No |
| C=C(CNCCc1ccc(O)cc1)[C@@H]1CC[C@]2(CO)CC[C@]3(C)[C@H](CC[C@@H]4[C@@]5(C)CCC(NCCc6ccc(O)cc6)C(C)(C)[C@@H]5CC[C@]43C)[C@@H]12 (stereo partly drawn) | Yes |
| Cn1c(=O)c2c(nc(Nc3cc(=O)[nH]c(=O)[nH]3)n2Cc2ccccc2)n(C)c1=O | No |
| CONC1=Nc2cc(NC(N)=NCc3ccccc3)c(N(C)C3CCCCC3)cc2OC1 | No |
| C=CCN1C=CC(=O)[C@H](O[Si](C)(C)C(C)(C)C)[C@@H]1/C=C/c1ccccc1 | Yes |
| CCCn1nc(C(=O)N2CCCCC2)c2c1CCC(N1CCC(c3ccncc3)CC1)C2 (stereo not drawn) | No |

For this molecule, state the assay outcome: `O=C(/C=C/c1cccs1)Nc1ncc(Cc2ccc(Cl)c(Cl)c2)s1`
No

For this molecule, state the assay outcome: `COc1ccc(Nc2ncnc3ccc(-c4cncc(NS(C)(=O)=O)c4)cc23)cc1Cl`
Yes

For this molecule, state the assay outcome: `CCOC(=O)CCCn1c(-c2ccccc2)cc(-c2ccccc2)c(C#N)c1=O`
No

----------
# System: NCI-H23 lung
# PROCEDURE_SUMMARY: NCI-60 one-dose screen, 48 h
# STATED_CONDITIONS: 10 µM unless noted
Compounds without any hit were thinned out: in the full panel of roughly 83,000, 20% have a hit. Calls of active or inactive are those of the source. Rule for the calls: active = growth percent below 10; inactive = the rest.
Could you please pick one outcome from this set? t for active, f for inactive

For this compound, state the assay outcome: COc1nc(=O)n(C2C=CC(=O)O2)cc1F (stereo not drawn)
f

For this compound, state the assay outcome: CCOC(=O)c1cnn(CC(O)CC)c1NC(=O)NCc1ccccc1C(F)(F)F (stereo not drawn)
f

For this compound, state the assay outcome: `COc1cc(-c2nc(SCCC(C)C)nc(Nc3ccc(F)cc3)c2C#N)cc(OC)c1OC`
f

For this compound, state the assay outcome: `CCN(CC)CC#CCOC(=O)[C@]1(C)CCC[C@]2(C)c3ccc(C(C)C)cc3CC[C@@H]12`
f

For this compound, state the assay outcome: `COc1cc(/C=C2\C(=O)N(CCCCn3c4ccccc4c(=O)c4ccccc43)c3ccccc32)cc(OC)c1O`
f

For this compound, state the assay outcome: `CCCCCCNC(=O)Oc1ccc(/C(=C(/CC)Cc2ccccc2)c2ccc(OCCCN(C)C)cc2)cc1`
f

For this compound, state the assay outcome: `COc1cc(CNC(=O)CCCC/C=C/C(C)C)ccc1OCc1cn(-c2ccc([N+](=O)[O-])cc2)nn1`
f

For this compound, state the assay outcome: `COc1cc2cc(NCc3ccncc3)nc(C)c2cc1OC`
f

For this compound, state the assay outcome: `Nc1nc(Nc2ccc(F)cc2)nn1C(=O)c1cc(Cl)ccc1Cl`
f

For this compound, state the assay outcome: `COc1ccc(CN2CCc3c(Cl)nc(N)nc3C2=O)c(OC)c1`
t

For this compound, state the assay outcome: `CC(=O)c1c(C)nc2ccccc2c1/C=C/c1cccc(C)c1`
f

For this compound, state the assay outcome: `O=C1C=C(Nc2ccccc2)c2ncccc2C1=O`
t

For this compound, state the assay outcome: `Cn1cc(-c2csc(-c3c[nH]c4ccc(F)cc34)n2)c2cnccc21`
f

For this compound, state the assay outcome: `CSc1nnc(-c2cc3c([nH]c4ccccc43)c(-c3cccc(O)c3)n2)n1-c1ccc(C)cc1`
f

For this compound, state the assay outcome: `N=C(N)c1ccc(-c2ccc(-c3ccc(F)cc3)s2)nc1`
f

For this compound, state the assay outcome: `NS(=O)(=O)c1ccc(C(=O)N=Nc2c(O)[nH]c3c(F)cccc23)cc1`
f

For this compound, state the assay outcome: `Cc1ccc(C(=O)c2ccc(CC(=O)N=Nc3c(O)[nH]c4ccc(OC(F)(F)F)cc34)n2C)cc1`
f

For this compound, state the assay outcome: `O=C1C(N2CCOCC2)=C(I)C(=O)c2ncccc21`
f

For this compound, state the assay outcome: `CCCCn1c(C(=O)c2c[nH]c3ccccc23)n[nH]c1=S`
f

For this compound, state the assay outcome: `CN1CCN(CCNC(=O)c2cccc(CN3c4cccc5c4C(=Cc4cccnc43)N(C)C5=O)c2)CC1`
f

For this compound, state the assay outcome: `COc1cc(N=Nc2ccc(O)c3ncccc23)c2ncccc2c1`
f

For this compound, state the assay outcome: `Clc1ccc(/C=N\N2CCCCCC2)cc1`
f

For this compound, state the assay outcome: `C=C[C@]1(C)C=C2CC[C@@H]3C(C)(C)C(=O)CC[C@@]3(C)[C@@H]2CC1`
f

For this compound, state the assay outcome: `BrC1=C(Br)C(Br)(Br)C(Br)=C1Br`
f

For this compound, state the assay outcome: `CC/C=C\C/C=C\C[C@H](O)C/C=C1/C(=O)C=C[C@@H]1C/C=C\CCCC(=O)OC`
t

For this compound, state the assay outcome: `N=c1c2c(-c3ccccc3)c(-c3ccccc3)oc2ncn1NC(=O)c1cccnc1`
f

For this compound, state the assay outcome: `O=C(CCN1CCOCC1)Nc1cccc(-n2cc(-c3ccncc3)c(-c3ccc(Cl)c(O)c3)n2)c1`
f

For this compound, state the assay outcome: CCOC(=O)CC1CSC(c2cccc(Cl)c2)=N1 (stereo not drawn)
f
